Data origin, for the record: paper PMC10065284

- System under test: serine protease
- Construct: purified serine protease, indigenously isolated from B. subtilis sp
- Procedure text: casein hydrolysis assay with purified protease, inhibition kinetics
Experimental endpoint: pKi
Scale note: pKi = -log10(concentration in M).

Record for COC(=O)c1cn(C2CC2)c2cc(N3CCN(CC(=O)Nc4ccccc4)CC3)c(F)cc2c1=O [4a] under target or system serine protease: pKi reported as 7.00
